These data points were gathered from paper PMC11855827.

Tested on: C. elegans
Test method notes: microbe, parasite or virus in culture
Condition set: Caenorhabditis elegans, 0 h, read-out: Percentage of motility inhibition 0 h, Table S2, C. elegans SS assay, 110 μM, 0 h, averages of 4 data points
Categorized via inhibition at 110 µM: bucket 1: < 1%; bucket 2: ≥ 1% and < 20%; bucket 3: ≥ 20%

Solved cases below.
{"columns": ["Compound", "Class name"],
 "data": [
  ["COc1cc(O)c2c(=O)c3c(O[C@@H]4O[C@H](CO)[C@@H](O)[C@H](O)[C@H]4O)ccc(O)c3oc2c1 [Swertianolin]", "bucket 2"],
  ["O=c1cc(-c2ccccc2)oc2cc(O)c(O)c(O)c12 [Baicalein]", "bucket 2"],
  ["CC[C@]12C=CCN3CC[C@]4(C(=C(C(=O)OC)C1)Nc1ccccc14)[C@@H]32 [Tabersonine]", "bucket 1"],
  ["CC(C)CC(C)c1sccc1NC(=O)c1cn(C)nc1C(F)(F)F (stereo not drawn) [Penthiopyrad]", "bucket 3"],
  ["C=C[C@H]1CN2CC[C@H]1C[C@H]2[C@H](O)c1ccnc2ccccc12 [Cinchonidine]", "bucket 1"],
  ["Oc1c(Br)cc(Br)c2cccnc12 [Broxyquinoline]", "bucket 1"],
  ["Oc1c(Cl)cc(Cl)c2cccnc12 [Chloroxine]", "bucket 3"],
  ["O=C(/C=C/c1ccccc1)c1ccc(O)cc1 [4'‐Hydroxychalcone]", "bucket 3"],
  ["O=C1c2c(O)cc(O)cc2O[C@H](c2cc(O)c(O)c(O)c2)[C@H]1O [Dihydromyricetin]", "bucket 3"],
  ["C=C1CCC2CC1C2(C)C (stereo not drawn) [β-Pinene]", "bucket 2"]
]}

Kindly identify the class of CC[C@H]1OC(=O)C[C@@H](O)[C@H](C)[C@@H](O[C@@H]2O[C@H](C)[C@@H](O[C@H]3C[C@@](C)(O)[C@@H](O)[C@H](C)O3)[C@H](N(C)C)[C@H]2O)[C@@H](CC=O)C[C@@H](C)C(=O)/C=C/C(C)=C/[C@@H]1CO[C@@H]1O[C@H](C)[C@@H](O)[C@@H](OC)[C@H]1OC [Tylosin] .
bucket 3

Consider COc1cc(NS(=O)(=O)c2ccc(N)cc2)nc(OC)n1 [Sulfadimethoxine] . To which inhibition at 110 µM class does it belong?
bucket 2

The entry to classify is COC(=O)N/N=C/c1c[n+]([O-])c2ccccc2[n+]1[O-] [Carbadox] ; which class holds it?
bucket 2

====

Test system: C. elegans
Condition set: Table S2, C. elegans SS assay, 110 μM, 0 h, averages of 4 data points
Where a SMILES comes first, the peptide text is derived from it. The star is where a group is joined. βNA = c1ccc2cc(N*)ccc2c1
Kindly return y if reported Percentage of motility inhibition 0 h is no lower than 20%; return n if it is lower.

Check if Percentage of motility inhibition 0 h >= 20% (inclusive). Item: COc1cccc(OC)c1C(=O)N[C@@H]1C(=O)N2[C@@H]1SC(C)(C)[C@@H]2C(=O)[O-].[Na+] [Methicillin (sodium salt)]
n

Reported Percentage of motility inhibition 0 h at or above 20%? Cl.Cl.NC(N)=NCCC[C@H](NC(=O)[C@@H](N)Cc1ccccc1)C(=O)Nc1ccc2ccccc2c1 [PAβN (dihydrochloride)] (H-Phe-Arg-βNA)
n

====

Tested on: C. elegans
Condition set: Table S2, C. elegans SS assay, 110 μM, 0 h, averages of 4 data points
Note to self: values exactly at 2% are TRUE. So Percentage of motility inhibition 0 h at or above 2% is TRUE, below is FALSE.

Form field: Percentage of motility inhibition 0 h at least 2%? Entry: C=CCCN1C[C@@H]2C[C@H](C1)c1cccc(=O)n1C2
FALSE

Tell me whether Percentage of motility inhibition 0 h is at least 2% here: Cc1c(O)c(O)cc2c1CC=C1[C@@]2(C)CC[C@@]2(C)[C@@H]3C[C@](C)(C(=O)O)CC[C@]3(C)CC[C@]12C
FALSE

====

Tested on: C. elegans
Test method notes: microbe, parasite or virus in culture
Condition set: Caenorhabditis elegans, 24 h, read-out: Percentage of motility inhibition 24 h, Table S2, C. elegans SS assay, 110 μM, 24 h, averages of 4 data points
# if value of inhibition at 110 µM reaches 10%, tag Criterion met; if it stays below, tag Criterion not met

Observe how each entry below is paired with its result.
{"columns": ["Molecule", "Class name"],
 "data": [
  ["Cc1noc(NS(=O)(=O)c2ccc(N)cc2)c1C [Sulfisoxazole]", "Criterion not met"],
  ["Cc1cc(NS(=O)(=O)c2ccc(N)cc2)no1 [Sulfamethoxazole]", "Criterion met"],
  ["C[C@@H]1O[C@@H](OC[C@H]2O[C@@H](Oc3cc(O)c4c(c3)O[C@H](c3ccc(O)c(O)c3)CC4=O)[C@H](O)[C@@H](O)[C@@H]2O)[C@H](O)[C@H](O)[C@H]1O [Eriocitrin]", "Criterion met"],
  ["Nc1nc2c(nc(O)n2[C@@H]2O[C@H](CO)[C@@H](O)[C@H]2O)c(=O)[nH]1 [8‐Hydroxyguanosine]", "Criterion not met"],
  ["CC1(C)CCC[C@](C)([C@H]2CC[C@]3(C)[C@@H]2[C@H](O)C[C@@H]2[C@@]4(C)CC[C@H](O)C(C)(C)[C@@H]4[C@@H](O)C[C@]23C)O1 [Panaxatriol]", "Criterion met"]
]}

Answer whether inhibition at 110 µM of Oc1cc(Cl)ccc1Oc1ccc(Cl)cc1Cl [Triclosan] is greater than or equal to 10%.
Criterion met

Hi team, for Oc1cc(O)c2c(c1)O[C@H](c1ccc(O)c(O)c1)[C@H](O)[C@H]2c1c(O)cc(O)c2c1O[C@H](c1ccc(O)c(O)c1)[C@H](O)[C@H]2c1c(O)cc(O)c2c1O[C@H](c1ccc(O)c(O)c1)[C@H](O)C2 [Procyanidin C1] , is the recorded inhibition at 110 µM at or above 10%?
Criterion met

Is inhibition at 110 µM at least 10%? Consider O=c1[nH]cnc2c1ncn2[C@H]1CC[C@@H](CO)O1 [Didanosine]
Criterion not met

Reported inhibition at 110 µM at or above 10%? CCCCCCCCCC(=O)N[C@@H](Cc1c[nH]c2ccccc12)C(=O)N[C@H](CC(N)=O)C(=O)N[C@@H](CC(=O)O)C(=O)N[C@@H]1C(=O)NCC(=O)N[C@@H](CCCN)C(=O)N[C@@H](CC(=O)O)C(=O)N[C@H](C)C(=O)N[C@@H](CC(=O)O)C(=O)NCC(=O)N[C@H](CO)C(=O)N[C@@H]([C@H](C)CC(=O)O)C(=O)N[C@@H](CC(=O)c2ccccc2N)C(=O)O[C@@H]1C [Daptomycin]
Criterion not met

Is it the case that CC(C)=CCC/C(C)=C/CC/C(C)=C/CC/C=C(\C)CC/C=C(\C)CCC=C(C)C [Squalene] has inhibition at 110 µM reaching or exceeding 10%?
Criterion met

Check this molecule for inhibition at 110 µM at or above 10%: COc1cc(-c2cc(=O)c3c(O)cc(O)cc3o2)ccc1O [Chrysoeriol]
Criterion not met

Please tell me: is the molecule C=CC1=C(C(=O)O)N2C(=O)[C@@H](NC(=O)/C(=N\OCC(=O)O)c3csc(N)n3)[C@H]2SC1 [Cefixime] at or over 10% in terms of inhibition at 110 µM?
Criterion met

====

System: C. elegans
Condition set: Table S2, C. elegans SS assay, 110 μM, 0 h, averages of 4 data points
Reported values of Percentage of motility inhibition 0 h for individual entries
I only need the number, in %, no unit after it.

// worked examples, Percentage of motility inhibition 0 h included
{"columns": ["Molecule", "Readout value"],
 "data": [
  ["C/C=C(\\C)C(=O)OC1C[C@H]2CC[C@@H](C1)N2C (some centres unmarked)", 0],
  ["Cc1onc(-c2ccccc2)c1C(=O)N[C@@H]1C(=O)N2[C@@H]1SC(C)(C)[C@@H]2C(=O)[O-].O.[Na+] [Oxacillin (sodium monohydrate)]", 27],
  ["CO[C@@H]1[C@@H](OC(N)=O)[C@@H](O)[C@H](Oc2ccc3c([O-])c(NC(=O)c4ccc(O)c(CC=C(C)C)c4)c(=O)oc3c2C)OC1(C)C.[Na+] [Novobiocin (sodium)]", 6],
  ["COc1cc(/C=C/C(=O)OC[C@H]2O[C@@H](O[C@@H]3[C@@H](O)[C@H](O)[C@@H](CO)O[C@H]3c3c(OC)cc4oc(-c5ccc(O)cc5)cc(=O)c4c3O)[C@H](O)[C@@H](O)[C@@H]2O)ccc1O", 9],
  ["O=C(/C=C/c1ccc(O)c(O)c1)c1ccc(O)c(O)c1O", 9],
  ["COc1ccc(-c2oc3c(CC=C(C)C)c(O)cc(O)c3c(=O)c2O[C@@H]2O[C@@H](C)[C@H](O)[C@@H](O)[C@H]2O[C@@H]2O[C@@H](C)[C@H](O)[C@@H](O)[C@H]2O)cc1 [2''‐O‐Rhamnosylicariside II]", 0],
  ["C[C@@H]1O[C@@H](O[C@H]2[C@H](O[C@H]3CC[C@@]4(C)[C@@H](CC[C@]5(C)[C@@H]4CC=C4[C@@H]6CC(C)(C)CC[C@]6(C(=O)O[C@@H]6O[C@H](CO[C@@H]7O[C@H](CO)[C@@H](O)[C@H](O)[C@H]7O)[C@@H](O)[C@H](O)[C@H]6O)CC[C@]45C)[C@]3(C)CO)OC[C@H](O)[C@@H]2O)[C@H](O)[C@H](O[C@@H]2O[C@H](CO)[C@@H](O)[C@H](O)[C@H]2O)[C@H]1O", 1],
  ["C[N+]1(C)CCC[C@H]1C(=O)[O-].Cl [Stachydrine hydrochloride]", 15],
  ["CC(C)=CCc1c(O)ccc(-c2coc3cc(O)cc(O)c3c2=O)c1O", 0],
  ["CC(=O)O[C@@H]1C[C@@]23C[C@@]24CC[C@H](O[C@@H]2OC[C@H](O)[C@H](O)[C@H]2O)C(C)(C)[C@@H]4CC[C@H]3[C@]2(C)[C@@H](O)[C@]34O[C@H](C[C@@H](C)[C@@H]3[C@@]12C)[C@@H](C(C)(C)O)O4 [Cimiracemoside D]", 0]
]}

Suppose we examine the molecule COc1cc(-c2oc3cc(O)cc(O)c3c(=O)c2O[C@@H]2O[C@H](CO[C@@H]3O[C@@H](C)[C@H](O)[C@@H](O)[C@H]3O)[C@@H](O)[C@H](O)[C@H]2O[C@@H]2O[C@@H](C)[C@H](O)[C@@H](O)[C@H]2O)ccc1O [Typhaneoside] ; what Percentage of motility inhibition 0 h value has been reported?
26

For CO/N=C(\C(=O)N[C@@H]1C(=O)N2C(C(=O)OCOC(=O)C(C)(C)C)=C(C)CS[C@H]12)c1csc(N)n1.Cl [Cefetamet pivoxil (hydrochloride)] , what is its reported Percentage of motility inhibition 0 h?
55

Please give the measured Percentage of motility inhibition 0 h for this molecule: CN1CCCN=C1/C=C/c1cccc(O)c1.O=C(O)c1cc2ccccc2c(Cc2c(O)c(C(=O)O)cc3ccccc23)c1O [Oxantel (pamoate)]
54

What does the record list as Percentage of motility inhibition 0 h for CC1(C)C2=CCCC(C)(C)[C@]23CC[C@H]1C3 ?
2

Requested field: Percentage of motility inhibition 0 h. Item: COC1=CC(=O)OC(/C=C/c2ccccc2)C1 (stereo not drawn) [(+)‐Kavain]
38

I have this molecule here, COC(=O)[C@]1(C)CC[C@]2(C(=O)O[C@@H]3O[C@H](CO)[C@@H](O)[C@H](O)[C@H]3O)CC[C@]3(C)C(=CC[C@@H]4[C@@]5(C)C[C@H](O)[C@H](O[C@@H]6OC[C@@H](O[C@@H]7O[C@H](CO)[C@@H](O)[C@H](O)[C@H]7O)[C@H](O)[C@H]6O)[C@@](C)(CO)C5CC[C@]43C)[C@H]2C1 (some centres unmarked) [Esculentoside H] , and I need its recorded Percentage of motility inhibition 0 h.
0

Give the measured Percentage of motility inhibition 0 h of O=c1cc(-c2ccc(O)cc2)oc2cccc(O)c12 [4',5‐Dihydroxyflavone] .
39

So what does the record say about Percentage of motility inhibition 0 h for CC(C)(O)[C@H]1CC[C@@](C)([C@H]2CC[C@]3(C)[C@@H]2[C@H](O)C[C@@H]2[C@@]4(C)CC[C@H](O)C(C)(C)[C@@H]4[C@@H](O[C@@H]4O[C@H](CO)[C@@H](O)[C@H](O)[C@H]4O)C[C@]23C)O1 [Pseudoginsenoside RT5] ?
0

Would you kindly share the measured Percentage of motility inhibition 0 h for CC(C)=C[C@@H]1CO[C@]23C[C@]4(CO2)[C@H](CC[C@@H]2[C@@]5(C)CC[C@H](O[C@@H]6OC[C@H](O)[C@H](O[C@@H]7O[C@H](CO)[C@@H](O)[C@H](O)[C@H]7O)[C@H]6O[C@@H]6O[C@@H](CO)[C@H](O)[C@H]6O)C(C)(C)[C@@H]5CC[C@]24C)[C@H]3[C@@]1(C)O ?
6

Could you tell me which Percentage of motility inhibition 0 h is on file for CC(C)=CCc1c(O)cc2c(c1O)C(=O)C[C@@H](c1ccc(O)cc1)O2 ?
0
